All figures here come from PubChem BioAssay (NCI).

Test system: SW-620 colon
assay.name: NCI tumour cell line growth inhibition, 48 h
endpoint.name: TGI

The following compounds have reported results that may help.
Cc1ncc([N+](=O)[O-])n1CCNS(=O)(=O)CCCn1ncnc1[N+](=O)[O-]
> 100 µM
Cc1c(C#N)c(N)n(C2OCC(O)C(O)C2O)c(=S)c1C#N (stereo not drawn)
> 100 µM

// below: TGI requested for another compound
Recorded TGI for Cc1c2ccncc2c(C)c2c1[nH]c1ccccc12 on SW-620 colon was 2.07 µM

----------
Test system: ACHN renal
assay.name: NCI tumour cell line growth inhibition, 48 h
Documented TGI across a set of compounds

Example results:
O/C(=C\c1nc2ccccc2nc1NC12CC3CC(CC(C3)C1)C2)c1ccc(Br)cc1
> 10 µM
O=C(OCc1ccccc1)C(Cc1ccccc1)N(Cc1ccccc1)Cc1ccccc1 (centres undefined)
> 100 µM
Cc1cc(/N=C/c2ccc(C#N)cc2)n(-c2ccccc2)n1
> 100 µM
C[C@]1(S(=O)(=O)c2ccccc2)C[C@H]2N(Cc3ccccc3)[C@@H]1CCC21OCCO1
> 100 µM

So for CC(C)(C)C(=O)C(Cc1ccccc1)C(=O)C(C)(C)C , the logged TGI turned out to be > 100 µM

Value of measured TGI for the entry Nc1nc(Nc2ccc(Cl)cc2)sc1C(=O)c1cccs1 : > 100 µM

Recorded TGI (compound Cc1ccc(-c2c(C#N)c(-c3ccc([N+](=O)[O-])cc3)c(C#N)c(=O)n2NS(=O)(=O)c2ccccc2)cc1 ): > 100 µM

Value of measured TGI for the entry CCOC(=O)C(C)c1nc2c(Cl)c3ncccc3cc2[nH]c1=O (centres undefined) : > 100 µM

// TGI lookup, compound = O=C(NCc1ccc(S(=O)(=O)c2cc(F)cc(F)c2)cc1)c1ccc2nccn2c1 , result: > 100 µM

What the record says about COc1cc(C2C(C(=O)Nc3cc(F)c(F)cc3F)=C(C)NC(C)=C2C(=O)Nc2cc(F)c(F)cc2F)ccc1O : TGI is 65.3 µM

Sure, the documented TGI for CCCCN(CCCC)C(=C(C(Cl)=C(Cl)Cl)[N+](=O)[O-])N(CCCC)CCCC is > 100 µM

Sure, the documented TGI for O=c1oc2ccc(Br)cc2c(=O)n1-c1ccc(F)cc1F is 7.99 µM

In plain terms, COC(=O)/C(=C\c1ccc(N(CCC#N)CCC#N)cc1)NC(=O)c1cc([N+](=O)[O-])ccc1Cl has a documented TGI of > 100 µM

Query Cn1ccnc1Sc1ccc(C=Nc2ccc3nc(SCC(=O)NC4CCCCC4)sc3c2)cc1[N+](=O)[O-] yields TGI of > 100 µM

----------
Tested on: SK-MEL-28 melanoma
assay.name: NCI tumour cell line growth inhibition, 48 h
endpoint.name: TGI

Study these solved cases before continuing.
COc1cc2c(c(O)c1O)-c1ccc(OC)c(=O)cc1C(NC(C)=O)CC2 (stereo not given)
> 100 µM
Cc1cc2nc(-c3cc(C(C)(C)C)c(O)c(C(C)(C)C)c3)[nH]c2cc1C
> 100 µM
COC(=O)c1cc(/C=C/c2ccc(S(N)(=O)=O)cc2)ccc1O
> 100 µM

Reported TGI of CC1C(=O)OC2CC[N+]3([O-])CC=C(COC(=O)C(C)(O)C1(C)O)C23 (stereo not given) : > 100 µM

Record summary for C[C@H]1CCC/C=C/[C@@H]2C[C@H](O)C[C@H]2[C@H](O)[C@@H](SCC(O)CO)CC(=O)O1 (stereo not given in full) : reported TGI = > 100 µM

Record N.N.NCCCCCCCCCN.O=C([O-])CC(=O)[O-].O=C([O-])CC(=O)[O-].[Pt+4].[Pt+4] . Reported TGI: > 100 µM

Value of TGI reported for the compound O=C(CCc1cccc(O)c1)NCCCNC(=O)CCc1cccc(O)c1 is > 100 µM

Recorded result, COc1cc(C(=O)C/C(CCC(=O)Nc2ccc(Cl)cc2Cl)=N/NC(=O)C(=O)NN)ccc1O , TGI: > 100 µM

Per the record, C/C(CCn1[nH]c(=O)ccc1=O)=N\OCCCc1ccccc1 has TGI of > 100 µM

The recorded TGI for Nc1ccc2[nH]cc(CCC(=O)O)c2c1 is > 100 µM
